These data points were gathered from paper PMC6999911.

System: QuinR-M2 (QcrB Trp312Gly)
Type: cell-based, Mycobacterium tuberculosis
// reported fold-change MIC compared to H37Rv (QuinR-M2) for each item listed
measurementLabel: fold-change MIC compared to H37Rv (QuinR-M2) (fold-change)

compound="CCSc1nc(NC)c2ccccc2n1 [Compound 11626141]" tgt="QuinR-M2 (QcrB Trp312Gly)" valuerelationsign== testvalue=1489
compound="CCNc1nc(SCC)nc2ccccc12 [Compound 11626142]" tgt="QuinR-M2 (QcrB Trp312Gly)" valuerelationsign== testvalue=1111
compound="CCSc1nc(NC)c2ccc(F)c(F)c2n1 [Compound 11726148]" tgt="QuinR-M2 (QcrB Trp312Gly)" valuerelationsign== testvalue=224
compound="CCSc1nc(NC)c2cccc(F)c2n1 [Compound 11626252]" tgt="QuinR-M2 (QcrB Trp312Gly)" valuerelationsign== testvalue=1470
compound="Cc1c(OCC(F)(F)F)ccnc1CSc1nc2ccccc2[nH]1 [LPZs, lansoprazole sulfide, reference compound]" tgt="QuinR-M2 (QcrB Trp312Gly)" valuerelationsign=> testvalue=71
compound="CCc1nc2ccc(Cl)cn2c1C(=O)NCc1ccc(N2CCC(c3ccc(OC(F)(F)F)cc3)CC2)cc1 [Compound Q203, Telacebec, reference compound]" tgt="QuinR-M2 (QcrB Trp312Gly)" valuerelationsign== testvalue=742

----------
System: QuinR-M3 (QcrB Gly175Ser)
Format: cell-based, Mycobacterium tuberculosis
Returns one of MET or NOT MET; MET when fold-change MIC compared to H37Rv (QuinR-M3) is >= 90 fold-change.

compound=CCSc1nc(NC)c2cccc(F)c2n1 assignedclass="NOT MET"
compound=CCNc1nc(SCC)nc2ccccc12 assignedclass="NOT MET"
compound="CCc1nc2ccc(Cl)cn2c1C(=O)NCc1ccc(N2CCC(c3ccc(OC(F)(F)F)cc3)CC2)cc1 [Compound Q203, Telacebec, reference compound]" assignedclass=MET
compound=CCSc1nc(NC)c2ccc(F)c(F)c2n1 assignedclass=MET
compound="Cc1c(OCC(F)(F)F)ccnc1CSc1nc2ccccc2[nH]1 [LPZs, lansoprazole sulfide, reference compound]" assignedclass="NOT MET"
